Values compiled from patent US11834453B2.

A set of molecules tested on EGFR (Homo sapiens (Human), UniProt P00533), with measured IC50:
MEASUREMENT LABEL: IC50

[[record]]
molecule = "Cc1cc(Nc2ncnc3cnc(N4CC5CC(C4)O5)nc23)ccc1Oc1ccn2ncnc2c1 [Example 135]"
experimental_target = "EGFR (Homo sapiens (Human), UniProt P00533)"
measurement_label = "IC50"
assay_value = "≥ 10 µM"

[[record]]
molecule = "Cc1cc(Nc2ncnc3cnc(N(C)C[C@H](C)O)nc23)ccc1Oc1ccc2c(c1)ncn2C [Example 195]"
experimental_target = "EGFR (Homo sapiens (Human), UniProt P00533)"
measurement_label = "IC50"
assay_value = "7.29 µM"

[[record]]
molecule = "CC(C)(O)[C@@H]1CCN(c2ncc3ncnc(Nc4ccc(Oc5ccn6ncnc6c5)c(Cl)c4)c3n2)C1 [Example 122]"
experimental_target = "EGFR (Homo sapiens (Human), UniProt P00533)"
measurement_label = "IC50"
assay_value = "0.953 µM"

[[record]]
molecule = "Cc1cc(Nc2ncnc3cnc(N4CCCC(OC(F)F)C4)nc23)ccc1Oc1ccc2c(c1)ncn2C (racemic) [Example 40]"
experimental_target = "EGFR (Homo sapiens (Human), UniProt P00533)"
measurement_label = "IC50"
assay_value = "≥ 10 µM"

[[record]]
molecule = "Cn1cnc2cc(Oc3ccc(Nc4ncnc5cnc(N6CCN7CCOC[C@H]7C6)nc45)cc3Cl)ccc21.O=C(O)C(F)(F)F.O=C(O)C(F)(F)F [Example 150, bis(2,2,2-trifluoroacetate)]"
experimental_target = "EGFR (Homo sapiens (Human), UniProt P00533)"
measurement_label = "IC50"
assay_value = "≥ 10 µM"

[[record]]
molecule = "Cc1cc(Nc2ncnc3cnc(N(C)[C@@H]4CCCOC4)nc23)ccc1Oc1ccn2ncnc2c1 [Example 415]"
experimental_target = "EGFR (Homo sapiens (Human), UniProt P00533)"
measurement_label = "IC50"
assay_value = "0.97 µM"

